// provenance: the OPERA property sets (Mansouri et al. 2018)

Where a SMILES comes first, the peptide text is derived from it.
MEASURE: logP

[[record]]
molecule = "O=C(Nc1ncc([N+](=O)[O-])s1)c1ccc(Br)cc1"
measurement = 3.58

[[record]]
molecule = "Cc1nc2c3c(c(C(=O)N(C)C)cn2c1C)CCC(c1cccs1)O3 (stereo unspecified)"
measurement = 2.8

[[record]]
molecule = "CC(C)CC(NC(=O)C(CC(C)C)NC(=O)C(C)NC(=O)C(C)NC(=O)CN)C(=O)O (stereo unspecified) (H-GAALL-OH; configuration not given here)"
measurement = -2.55

[[record]]
molecule = "COc1cc2ncnc(Nc3cccc(Br)c3)c2cc1OC"
measurement = 3.49

[[record]]
molecule = "CC(C)NCC(O)COc1ccccc1C1CCCCC1 (stereo unspecified)"
measurement = 3.68

[[record]]
molecule = "COc1ccc2cc(C(C)C(=O)OCOC(C)=O)ccc2c1 (stereo unspecified)"
measurement = 3.4

[[record]]
molecule = "CC(=O)OC1CC(OC2C(O)CC(OC3C(O)CC(OC4CCC5(C)C(CCC6C5CC(O)C5(C)C(C7=CC(=O)OC7)CCC65O)C4)OC3C)OC2C)OC(C)C1OC(C)=O (stereo unspecified)"
measurement = 2.59

[[record]]
molecule = "NC(Cc1ccc(O)cc1)C(=O)N1CCCC1C(=O)O (stereo not drawn) (H-Tyr-Pro-OH; configuration not given here)"
measurement = -2.03

[[record]]
molecule = "CC(C)C(NC(=O)C(N)Cc1ccccc1)C(=O)NCC(=O)O (stereo not drawn) (H-Phe-Val-Gly-OH; configuration not given here)"
measurement = -2.33

[[record]]
molecule = "Cc1ccccc1CNc1[nH]cnc2ncnc1-2"
measurement = 2.58

[[record]]
molecule = "CC(C)(C)[N+]([O-])=Cc1ccccc1[N+](=O)[O-]"
measurement = 0.8

[[record]]
molecule = "COc1ccc(C2Cc3cc(OC)ccc3N(CCN(C)C)C(=O)C2OC(C)=O)cc1 (stereo unspecified)"
measurement = 3.2

[[record]]
molecule = "CCCC(=O)c1ccncc1"
measurement = 1.4

[[record]]
molecule = "CCOCCOCCOC1CCC(NC(=O)NC23CC4CC(CC(C4)C2)C3)CC1 (stereo unspecified)"
measurement = 2.9

[[record]]
molecule = "COc1ccc(C2Cc3c(Cl)cccc3N(CCN(C)C)C(=O)C2OC(C)=O)cc1 (stereo unspecified)"
measurement = 4.4

[[record]]
molecule = "CCC(C)NCc1cccc(S(=O)(=O)c2csc(S(N)(=O)=O)c2)c1 (stereo unspecified)"
measurement = 2.13

[[record]]
molecule = "CC(C)CCC(=O)CC1c2ccccc2C(=O)N1c1ccc2ccc(Cl)nc2n1 (stereo unspecified)"
measurement = 4.8

[[record]]
molecule = "CCOc1ccc(NC(=O)OCCN2CCCCC2)cc1"
measurement = 3.41

[[record]]
molecule = "O=C(O)Cc1ccc2c(c1)SCc1ccccc1C2=O"
measurement = 2.97

[[record]]
molecule = "CNc1ncnc2c1ncn2C1OC(CO)C(O)C1O (stereo unspecified)"
measurement = -0.52

[[record]]
molecule = "O=C1c2ccccc2-c2nncc(-c3ccccc3)c21"
measurement = 2.8

